src = patent US11478471B2

protocol_details: Toxicokinetics in the 28 day dog study of DIO-902 (with racemic ketoconazole group a);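 further: beagle dogs dosed orally once daily within a 28-day GLP study, 3 animals per sex per group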
measurement_conditions: female, beagle, plasma, po, 20 mg/kg, Drug concentration in plasma, dogs, 20 mg/kg oral, day 1, F, 8 h
outcome_measure: concentration at 8 h (ng/mL)
Answers are plain numbers, in ng/mL.

What does the data say about its concentration at 8 h? Entry: CC(=O)N1CCN(c2ccc(OC[C@@H]3CO[C@@](Cn4ccnc4)(c4ccc(Cl)cc4Cl)O3)cc2)CC1 [DIO-902] 9950

====

protocol_details: Toxicokinetics of racemic ketoconazole in another 28-day dog study (b)
measurement_conditions: male, beagle, dog, plasma, po, 10 mg/kg, Drug concentration in plasma, dogs, study b, powder, 10 mg/kg oral, day 1, M, 4 h
outcome_measure: concentration at 4 h
Just so you know, I need the unit written after the number.

What does the data say about its concentration at 4 h? Entry: CC(=O)N1CCN(c2ccc(OCC3COC(Cn4ccnc4)(c4ccc(Cl)cc4Cl)O3)cc2)CC1 (racemic) [Racemic ketoconazole] 1180 ng/mL
